system: phenylalkylamine binding site of the L-type calcium channel; experiment: Verapamil binding, L calcium channel; details: 10 μM, percentage inhibition, N-methyl-[3H]-verapamil 2 nM
Short version: Verapamil Binding at 10 μM at least 60% is True, less is False.

{"compound": "CCCCC1(O)CCCCC1C(c1ccccc1)N(C)C.Cl (stereo not drawn) [Example 18]", "label": "True"}
{"compound": "CN(C)C(c1ccccc1)C1CCCCC1(O)c1cccc(O)c1.Cl (stereo not drawn) [Example 4]", "label": "False"}
{"compound": "COc1cccc(C2(O)CCCCC2C(c2ccccc2)N(C)C)c1.Cl (stereo not drawn) [Example 1]", "label": "True"}
{"compound": "CN(C)C(c1ccccc1)C1CCCCC1(O)Cc1ccc(OC(F)(F)F)cc1.Cl (stereo not drawn) [Example 16]", "label": "True"}
{"compound": "CN(C)C(c1ccccc1)C1CCCCC1(O)c1ccoc1.Cl (stereo not drawn) [Example 17]", "label": "True"}

Threshold query (Verapamil Binding at 10 μM >= 60%) on Cc1ccc(C2(O)CCCCC2C(c2ccccc2)N(C)C)cc1.Cl (stereo not drawn) [Example 8]
False

Could you tell me if the measured Verapamil Binding at 10 μM of CN(C)C(c1ccccc1)C1CCCCC1(O)c1ccc(F)cc1.Cl (stereo not drawn) [Example 7] reaches 60% or more?
False

----------
tested on: benzothiazepine binding site of the L-type calcium channel; assay: Diltiazem binding, L calcium channel; parameters: species or system rat; conditions: 10 μM, percentage inhibition, [3H]-cis-(+)-diltiazem 5 nM, rat cerebral cortex membranes
Could you label it Y if measured Diltiazem Binding at 10 μM is 90% or higher, and N otherwise?

Textbook exercise: given the entry CN(C)C(c1ccccc1Cl)C1CCCCC1(O)Cc1ccccc1.Cl (stereo not shown) [Example 45] , state whether its Diltiazem Binding at 10 μM is greater than or equal to 90%.
N

----------
target: NA transporter (Rattus norvegicus); construct: synaptosomes are isolated fresh from rat brains; from tissue; host or cells: rat hypothalamus synaptosomes (P2 fraction); assay: synaptosomal noradrenaline uptake inhibition (NA uptake inhibition); format: biochemical; settings: 1 μM in the assay, synaptosomes from rat hypothalamus
Sequence (Q63380 1-617): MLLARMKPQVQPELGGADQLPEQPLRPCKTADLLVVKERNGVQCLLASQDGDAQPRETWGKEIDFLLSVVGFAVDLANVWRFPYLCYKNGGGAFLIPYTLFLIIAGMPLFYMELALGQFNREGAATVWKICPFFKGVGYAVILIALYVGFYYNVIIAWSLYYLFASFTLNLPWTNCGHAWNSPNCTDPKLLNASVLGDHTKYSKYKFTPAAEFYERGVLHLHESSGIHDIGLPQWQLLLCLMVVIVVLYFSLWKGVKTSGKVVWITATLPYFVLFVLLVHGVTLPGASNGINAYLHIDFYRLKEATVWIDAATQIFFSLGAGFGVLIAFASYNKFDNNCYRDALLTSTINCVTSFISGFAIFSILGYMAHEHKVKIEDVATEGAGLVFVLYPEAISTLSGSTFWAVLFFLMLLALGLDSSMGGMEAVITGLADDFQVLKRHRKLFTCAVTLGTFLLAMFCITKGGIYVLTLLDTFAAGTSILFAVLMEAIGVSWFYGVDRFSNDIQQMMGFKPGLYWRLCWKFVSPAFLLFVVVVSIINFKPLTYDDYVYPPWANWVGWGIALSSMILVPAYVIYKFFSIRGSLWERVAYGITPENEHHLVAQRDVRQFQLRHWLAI
measured property: NA Uptake Inhibition at 1 μM (%)
The reply should be a number in %, with the unit left off.

{"compound": "CN(C)C(c1cccc(Cl)c1)C1CCCCC1(O)c1ccccc1.Cl (stereo not shown) [Example 42]", "endpoint unit": "%", "NA Uptake Inhibition at 1 μM": 82}
{"compound": "COc1cccc(C(C2CCCCC2(O)c2cccc(Cl)c2)N(C)C)c1.Cl (stereo not shown) [Example 9]", "endpoint unit": "%", "NA Uptake Inhibition at 1 μM": 62}
{"compound": "CCC(O)(Cc1ccc(C(C)(C)C)cc1)C(C)C(c1ccccc1)N(C)C.Cl (stereo not shown) [Example 80]", "endpoint unit": "%", "NA Uptake Inhibition at 1 μM": 18}
{"compound": "COc1cccc(C2(O)CCCCC2C(c2ccccc2)N(C)C)c1.Cl (stereo not shown) [Example 1]", "endpoint unit": "%", "NA Uptake Inhibition at 1 μM": 41}
{"compound": "CN(C)C(c1cccs1)C1CCCCC1(O)Cc1cccc(C(F)(F)F)c1.Cl (stereo not shown) [Example 70]", "endpoint unit": "%", "NA Uptake Inhibition at 1 μM": 74}

Suppose we examine the compound CN(C)C(c1ccccc1)C1CCCCC1(O)c1cccc(F)c1.Cl (stereo not shown) [Example 2] ; what NA Uptake Inhibition at 1 μM value has been reported?
52

Bench note: what NA Uptake Inhibition at 1 μM did CN(C)C(c1ccccc1)C1CCCCC1(O)c1cccc(O)c1.Cl (stereo not shown) [Example 4] show?
49

----------
molecular target: NA transporter (Rattus norvegicus); construct: synaptosomes are isolated fresh from rat brains; from tissue; host or cells: rat hypothalamus synaptosomes (P2 fraction); assay: synaptosomal noradrenaline uptake inhibition (NA uptake inhibition); type: biochemical; details: read-out: NA Uptake Inhibition at 1 μM, 1 μM in the assay, synaptosomes from rat hypothalamus
measured property: inhibition at 1 µM (%)
Form entry: value (%) — number only.

{"compound": "COc1cccc(CC2(O)CCCCC2C(c2ccccc2)N(C)C)c1.Cl (centres unmarked) [Example 13, hydrochloride]", "inhibition at 1 µM, %": 95}

# query: inhibition at 1 µM of entry CN(C)C(c1ccccc1)C1CCCCC1(O)Cc1ccc(F)cc1Cl.Cl (centres unmarked) [Example 27, hydrochloride]
89

Fill in: inhibition at 1 µM of CCCCC1(O)CCCCC1C(c1ccccc1)N(C)C.Cl (centres unmarked) [Example 18, hydrochloride] is ___
84

Consider the compound shown here: CN(C)C(c1ccccc1)C1CCCCC1(O)c1ccc(F)cc1.Cl (centres unmarked) [Example 7, hydrochloride] What is its recorded inhibition at 1 µM?
38

So what's the measured inhibition at 1 µM for this one? Cc1ccc(C2(O)CCCCC2C(c2ccccc2)N(C)C)cc1.Cl (centres unmarked) [Example 8, hydrochloride]
50

Which inhibition at 1 µM is reported for this compound? CN(C)C(c1ccccc1)C1CCCCC1(O)Cc1cc(F)ccc1F.Cl (centres unmarked) [Example 54, hydrochloride]
96

So what does the record say about inhibition at 1 µM for CN(C)C(c1ccccc1)C1CCCCC1(O)CCCc1ccccc1.Cl (centres unmarked) [Example 68, hydrochloride] ?
49

Please report the recorded inhibition at 1 µM for CN(C)C(c1cccs1)C1CCCCC1(O)Cc1ccc(C(C)(C)C)cc1.Cl (centres unmarked) [Example 82, hydrochloride] .
0

----------
Known inhibition at 1 µM of a selection of compounds
Target: NA transporter (Rattus norvegicus)
Construct: synaptosomes are isolated fresh from rat brains; from tissue; host or cells: rat hypothalamus synaptosomes (P2 fraction)
Test: synaptosomal noradrenaline uptake inhibition (NA uptake inhibition)
Format: biochemical
Settings: read-out: NA Uptake Inhibition at 1 μM, 1 μM in the assay, synaptosomes from rat hypothalamus
Experimental: In order to carry out these in vitro studies, synaptosomes are isolated fresh from rat brains. […] For this purpose IC50 values are obtained, which can be converted to inhibitor constants (Ki) according to the “Cheng-Prusoff equation” (Y. C. Clieng and W. H. Prusoff (1973) Biochem. Pharmacol. 22, 3099-3108). […] Km values were calculated according to Lineweaver and Burk (H. Lineweaver and D. Burk (1934) J. Am. Chem. Soc. 56, 658-666). […]
Give the value in % but do not write % after it.

{"compound": "CN(C)C(c1ccccc1)C1CCCCC1(O)c1cccc2c1OCO2.Cl (stereo not shown) [Example 11, hydrochloride]", "measured property": "inhibition at 1 µM", "endpoint unit": "%", "value": 54}
{"compound": "CN(C)C(c1ccc(F)cc1)C1CCCCC1(O)Cc1cccc(C(F)(F)F)c1.Cl (stereo not shown) [Example 47, hydrochloride]", "measured property": "inhibition at 1 µM", "endpoint unit": "%", "value": 100}
{"compound": "Cc1ccccc1C(C1CCCCC1(O)Cc1ccccc1)N(C)C.Cl (stereo not shown) [Example 67, hydrochloride]", "measured property": "inhibition at 1 µM", "endpoint unit": "%", "value": 83}

# context switch: different compound, same inhibition at 1 µM
Which measured inhibition at 1 µM value corresponds to COc1ccc(C2(O)CCCCC2C(c2ccccc2)N(C)C)cc1.Cl (stereo not shown) [Example 5, hydrochloride] ?
70

----------
target: NA transporter (Rattus norvegicus); construct: synaptosomes are isolated fresh from rat brains; from tissue; host or cells: rat hypothalamus synaptosomes (P2 fraction); experiment: synaptosomal noradrenaline uptake inhibition (NA uptake inhibition); assay type: biochemical; settings: read-out: NA Uptake Inhibition at 1 μM, 1 μM in the assay, synaptosomes from rat hypothalamus
// FALSE strictly below 30% in inhibition at 1 µM; TRUE otherwise

Answered cases to consult:
{"compound": "CN(C)C(c1c(F)c(F)c(F)c(F)c1F)C1CCCCC1(O)Cc1ccccc1.Cl (centres unmarked) [Example 77, hydrochloride]", "tgt": "NA transporter (Rattus norvegicus)", "label": "FALSE"}
{"compound": "CN(C)C(c1ccccc1)C1CCCCC1(O)C1CCCCC1.Cl (centres unmarked) [Example 48, hydrochloride]", "tgt": "NA transporter (Rattus norvegicus)", "label": "FALSE"}
{"compound": "CCC(O)(CCc1ccccc1)C(C)C(c1ccccc1)N(C)C.Cl (centres unmarked) [Example 59, hydrochloride]", "tgt": "NA transporter (Rattus norvegicus)", "label": "FALSE"}
{"compound": "CN(C)C(c1ccccc1)C1CCCCC1(O)Cc1ccc(F)c(F)c1.Cl (centres unmarked) [Example 55, hydrochloride]", "tgt": "NA transporter (Rattus norvegicus)", "label": "TRUE"}

Could you now consider this next compound?
Quick check: does CN(C)C(c1ccc(C#N)cc1)C1CCCCC1(O)c1ccc(C(F)(F)F)cc1.Cl (centres unmarked) [Example 65, hydrochloride] have inhibition at 1 µM greater than or equal to 30%?
FALSE

----------
molecular target: phenylalkylamine binding site of the L-type calcium channel; assay: Verapamil binding, L calcium channel; conditions: radioligand, N=2; read-out: KD value for this binding site
measured property: pKd
Reminder that pKd means the negative base-10 logarithm of the concentration expressed in mol/L.

Value lookup for pKd; key = COc1ccc(CCN(C)CCCC(C#N)(c2ccc(OC)c(OC)c2)C(C)C)cc1OC (stereo not shown) [N-methyl-[^3H]-verapamil, reference compound]
6.86
